test system: MG-63 (osteosarcoma) cells; test: MTT cell growth inhibition, solid tumor cells; type: cell-based; conditions: Homo sapiens; MG-63, 72 h, MTT; read-out: IC50
Value kind: IC50 (µg/mL)

Observe how each entry below is paired with its result.
| Molecule | Obs value |
| --- | --- |
| COc1ccc2cc1Oc1ccc(cc1)C[C@H]1c3cc(c(OC)cc3CCN1C)Oc1c(OS(=O)(=O)c3ccccc3)c(OC)cc3c1[C@H](C2)N(C)CC3 | 2.71 |
| C=CCOc1c(OC)cc2c3c1Oc1cc4c(cc1OC)CCN(C)[C@H]4Cc1ccc(cc1)Oc1cc(ccc1OC)C[C@@H]3N(C)CC2 | 2.4 |
| C=C(C)COc1c(OC)cc2c3c1Oc1cc4c(cc1OC)CCN(C)[C@H]4Cc1ccc(cc1)Oc1cc(ccc1OC)C[C@@H]3N(C)CC2 | 0.8 |
| COc1ccc2cc1Oc1ccc(cc1)C[C@H]1c3cc(c(OC)cc3CCN1C)Oc1c(OCc3ccc(C(F)(F)F)cc3)c(OC)cc3c1[C@H](C2)N(C)CC3 | 3.4 |
| COc1ccc2cc1Oc1ccc(cc1)C[C@H]1c3cc(c(OC)cc3CCN1C)Oc1c(OCc3cccc(F)c3F)c(OC)cc3c1[C@H](C2)N(C)CC3 | 2.6 |

P. COc1ccc2cc1Oc1ccc(cc1)C[C@H]1c3cc(c(OC)cc3CCN1C)Oc1c(OCC(O)CN3CCCCC3)c(OC)cc3c1[C@H](C2)N(C)CC3 (stereo partly drawn)
Q. COc1ccc2cc1Oc1ccc(cc1)C[C@H]1c3cc(c(OC)cc3CCN1C)Oc1c(OCC(O)CN3CCCC(C)C3)c(OC)cc3c1[C@H](C2)N(C)CC3 (stereo partly drawn)
Task item: Decide: P or Q , by lowest recorded IC50. Identify your selection by its label.
Reply: P
(P: 0.6 µg/mL, Q: 1.1 µg/mL)

---

tested on: RKO (human colon adenocarcinoma) cells; experiment: MTT cell growth inhibition, solid tumor cells; type: cell-based; conditions: Homo sapiens; RKO, 72 h, MTT; read-out: IC50
Value kind: IC50 (µg/mL)

| Compound | Unit label | IC50 |
| --- | --- | --- |
| COc1ccc2cc1Oc1ccc(cc1)C[C@H]1c3cc(c(OC)cc3CCN1C)Oc1c(OCc3cccc(F)c3F)c(OC)cc3c1[C@H](C2)N(C)CC3 [BS-FC-204] | µg/mL | 1.66 |
| C=C(C)COc1c(OC)cc2c3c1Oc1cc4c(cc1OC)CCN(C)[C@H]4Cc1ccc(cc1)Oc1cc(ccc1OC)C[C@@H]3N(C)CC2 [BS-FC-221] | µg/mL | 1.37 |
| COc1cc(OC)cc(C(=O)Oc2c(OC)cc3c4c2Oc2cc5c(cc2OC)CCN(C)[C@H]5Cc2ccc(cc2)Oc2cc(ccc2OC)C[C@@H]4N(C)CC3)c1 [BS-FC-311] | µg/mL | 1.32 |
| COc1ccc2cc1Oc1ccc(cc1)C[C@H]1c3cc(c(OC)cc3CCN1C)Oc1c(OS(=O)(=O)c3ccc(C)cc3)c(OC)cc3c1[C@H](C2)N(C)CC3 [BS-FC-102] | µg/mL | 1.44 |

---

test system: PC-3 (prostate cancer) cells; assay: MTT cell growth inhibition, solid tumor cells; assay type: cell-based, human; conditions: Homo sapiens; PC-3, 72 h, MTT; read-out: IC50
Value kind: IC50 (µg/mL)

| Compound | IC50, µg/mL |
| --- | --- |
| COc1ccc2cc1Oc1ccc(cc1)C[C@H]1c3cc(c(OC)cc3CCN1C)Oc1c(OCC(O)CN3CCSCC3)c(OC)cc3c1[C@H](C2)N(C)CC3 (stereo partly drawn) | 3.68 |
| COc1ccc2cc1Oc1ccc(cc1)C[C@H]1c3cc(c(OC)cc3CCN1C)Oc1c(OC(=O)c3c(F)cccc3Cl)c(OC)cc3c1[C@H](C2)N(C)CC3 | 2.95 |
| C=C(C)COc1c(OC)cc2c3c1Oc1cc4c(cc1OC)CCN(C)[C@H]4Cc1ccc(cc1)Oc1cc(ccc1OC)C[C@@H]3N(C)CC2 | 3 |
| COc1ccc2cc1Oc1ccc(cc1)C[C@H]1c3cc(c(OC)cc3CCN1C)Oc1c(OCC3CC3)c(OC)cc3c1[C@H](C2)N(C)CC3 | 3.07 |
| COc1ccc2cc1Oc1ccc(cc1)C[C@H]1c3cc(c(OC)cc3CCN1C)Oc1c(OC(=O)c3ccc(N(C)C)cc3)c(OC)cc3c1[C@H](C2)N(C)CC3 | 2.4 |
| COc1ccc2cc1Oc1ccc(cc1)C[C@H]1c3cc(c(OC)cc3CCN1C)Oc1c(OCc3ccc(C(F)(F)F)cc3)c(OC)cc3c1[C@H](C2)N(C)CC3 | 3.95 |

Entry source: patent US9328122B2
